assay: recombinant UMI read abundance after kanamycin selection (control-corrected) (log10(CPM+1)); higher = more efficient recombination; extreme values may be limits of the assay; sequences stand for … in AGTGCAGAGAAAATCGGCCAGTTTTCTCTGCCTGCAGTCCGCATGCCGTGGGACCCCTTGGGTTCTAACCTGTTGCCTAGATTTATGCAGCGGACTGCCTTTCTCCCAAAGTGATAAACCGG…AGGTTGGTTTCACT; site = the 11-nt donor;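 further: IS621 bridge recombinase in Escherichia coli cells against a fixed T5 target plasmid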

recordSequence: ACACGAACATGGACCGGTTTTCCCGGTAATCCGTATTTGTC (site TCACGAACTGA)
recombinant UMI read abundance (log10): 0

recordSequence: TGCTACGCATGGACCGGTTTTCCCGGTAATCCGTATTTGGT (site TGCTAGGCTAC)
recombinant UMI read abundance (log10): 0

recordSequence: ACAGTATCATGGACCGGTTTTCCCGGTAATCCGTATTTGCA (site ACAAAATCTTG)
recombinant UMI read abundance (log10): 0.724

recordSequence: TGTACACCATGGACCGGTTTTCCCGGTAATCCGTATTTGTC (site TGTACACCTGA)
recombinant UMI read abundance (log10): 0

recordSequence: CCCAGTCCATGGACCGGTTTTCCCGGTAATCCGTATTTGCA (site CCCGGTCCTTG)
recombinant UMI read abundance (log10): 0.00873

recordSequence: TATGTCTCATGGACCGGTTTTCCCGGTAATCCGTATTTGCC (site TATGTCTCTGG)
recombinant UMI read abundance (log10): 2.6

recordSequence: CCTAGAACATGGACCGGTTTTCCCGGTAATCCGTATTTGAG (site ACTAGAACTCT)
recombinant UMI read abundance (log10): 0.00253

recordSequence: TGGCTTACATGGACCGGTTTTCCCGGTAATCCGTATTTGGC (site TGGCTTACTGC)
recombinant UMI read abundance (log10): 0.536

recordSequence: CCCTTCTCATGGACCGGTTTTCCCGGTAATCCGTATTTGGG (site CCATTCTCTCC)
recombinant UMI read abundance (log10): 0

recordSequence: CACGGTCCATGGACCGGTTTTCCCGGTAATCCGTATTTGTT (site CACGGACCTAA)
recombinant UMI read abundance (log10): 0.00385

recordSequence: TTTCACTCATGGACCGGTTTTCCCGGTAATCCGTATTTGGT (site TTTCACTCTAC)
recombinant UMI read abundance (log10): 0.00742

recordSequence: ACATACTCATGGACCGGTTTTCCCGGTAATCCGTATTTGCA (site TCATACTCTTG)
recombinant UMI read abundance (log10): 2.8

recordSequence: GCGAAGCCATGGACCGGTTTTCCCGGTAATCCGTATTTGGT (site GCGAAGCCTCC)
recombinant UMI read abundance (log10): 0.00425

recordSequence: CGTTGGTCATGGACCGGTTTTCCCGGTAATCCGTATTTGCA (site CGTTGGTCTTG)
recombinant UMI read abundance (log10): 1.29

recordSequence: CGATAGACATGGACCGGTTTTCCCGGTAATCCGTATTTGAG (site CGATAGACTCT)
recombinant UMI read abundance (log10): 2.32

recordSequence: CTACTAACATGGACCGGTTTTCCCGGTAATCCGTATTTGGA (site CTCCTAACTTC)
recombinant UMI read abundance (log10): 0.373

recordSequence: GACTTGACATGGACCGGTTTTCCCGGTAATCCGTATTTGCT (site AACTTGACTAG)
recombinant UMI read abundance (log10): 1.3

recordSequence: CCCTAGCCATGGACCGGTTTTCCCGGTAATCCGTATTTGCC (site CACTAGCCTGG)
recombinant UMI read abundance (log10): 0

Provenance of the data: the supplement of paper PMC11208160
